Measured values drawn from ChEMBL document CHEMBL3044821 for this set.

System: Streptococcus pyogenes
METHOD: Antibacterial activity against Streptococcus pyogenes MTCC 442 assessed as growth inhibition after 24 to 48 hr by NCCLS broth microdilution method
Format: functional
Recorded MIC for the following molecules
Kindly provide the numeric value in µg/mL only, without the unit symbol.

The cases that follow already have their MIC on record.
MOLECULE	RESULT UNIT	ASSAY VALUE
O=C(N[C@H](CO)[C@H](O)c1ccc([N+](=O)[O-])cc1)C(Cl)Cl	µg/mL	50
C=CCn1c(=O)c(C2C3=C(CCCC3=O)OC3=C2C(=O)c2ccccc2C3=O)cc2cc(Cl)ccc21 (stereo not drawn)	µg/mL	50
C=CCn1c(=O)c(C2C3=C(CCCC3=O)OC3=C2C(=O)c2ccccc2C3=O)cc2cc(C)ccc21 (stereo not drawn)	µg/mL	250
C=CCn1c(=O)c(C2C(C#N)=C(N)OC3=C2C(=O)c2ccccc2C3=O)cc2ccccc21 (stereo not drawn)	µg/mL	250
CC1(C)S[C@@H]2[C@H](NC(=O)[C@H](N)c3ccccc3)C(=O)N2[C@H]1C(=O)O	µg/mL	100

# get_value(readout= MIC, system= Streptococcus pyogenes) for C=CCn1c(=O)c(C2C(C#N)=C(N)OC3=C2C(=O)c2ccccc2C3=O)cc2cc(OC)ccc21 (stereo not drawn) 200

# get_value(readout= MIC, system= Streptococcus pyogenes) for C=CCn1c(=O)c(C2C(C#N)=C(N)OC3=C2C(=O)c2ccccc2C3=O)cc2cc(C)ccc21 (stereo not drawn) 100

# get_value(readout= MIC, system= Streptococcus pyogenes) for C=CCn1c(=O)c(C2C(C(=O)OC(C)C)=C(N)OC3=C2C(=O)c2ccccc2C3=O)cc2ccccc21 (stereo not drawn) 250
